Target: α-1b adrenoreceptor (Mesocricetus auratus, UniProt P18841)
Sequence (P18841 1-515): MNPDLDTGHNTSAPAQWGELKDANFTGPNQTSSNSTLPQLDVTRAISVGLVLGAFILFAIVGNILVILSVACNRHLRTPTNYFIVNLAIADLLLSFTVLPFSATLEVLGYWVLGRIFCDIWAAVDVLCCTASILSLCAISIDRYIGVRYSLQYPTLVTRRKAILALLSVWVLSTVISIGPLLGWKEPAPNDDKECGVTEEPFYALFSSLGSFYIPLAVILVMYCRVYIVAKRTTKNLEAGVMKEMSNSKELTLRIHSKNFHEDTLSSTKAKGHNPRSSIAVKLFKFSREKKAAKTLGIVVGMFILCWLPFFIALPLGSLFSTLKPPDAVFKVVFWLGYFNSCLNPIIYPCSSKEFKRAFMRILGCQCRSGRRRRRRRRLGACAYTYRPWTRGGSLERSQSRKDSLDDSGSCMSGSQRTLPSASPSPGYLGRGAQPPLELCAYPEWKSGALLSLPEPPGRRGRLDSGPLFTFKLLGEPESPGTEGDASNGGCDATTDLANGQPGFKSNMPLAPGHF
Assay: biochemical
Format: binding, hamster
Settings: [3H]-prazosin radioligand; cloned receptor in LTK cell membranes; read-out: Radioligand Binding (Ki, nM) 1b (Hamster)
Description: The cDNA clones encoding the α-1 adrenoreceptors (α-1a, α-1b, and α-1d) were obtained from TULCO (Triangle Universities Licensing Consortium, Research Triangle Park, NC) and inserted into the eukaryotic expression vector SnaB30. In this vector, expression of the adrenoreceptor gene is under the transcriptional control of an SV40 early promoter. […] Stable G418-resistant parental lines were generated, with successful expression of adrenoreceptor protein monitored using radioligand binding techniques. […]
Counter-ions that a name gives are not always drawn.
Some compounds, each annotated with its measured log10(Ki).
readout: log10(Ki) (log10 of the value in nM)

INSERT INTO results (compound, systemname, readout, observed) VALUES
  ('COc1cccc2c1[C@H]1CN(CCCCn3c(=O)[nH]c4c(sc5nccnc54)c3=O)C[C@@H]1CO2 [Example 12, dihydrochloride]', 'α-1b adrenoreceptor (Mesocricetus auratus, UniProt P18841)', 'log10(Ki)', 0.72),
  ('COc1ccc2sc3c(=O)n(CCCCN4C[C@@H]5COc6cccc(OC)c6[C@H]5C4)c(=O)[nH]c3c2n1 [Example 7, hydrochloride]', 'α-1b adrenoreceptor (Mesocricetus auratus, UniProt P18841)', 'log10(Ki)', 0.21),
  ('COc1cccc2c1[C@H]1CN(CCCCn3c(=O)[nH]c4c(sc5cccnc54)c3=O)C[C@H]1CO2 [Example 2, hydrochloride]', 'α-1b adrenoreceptor (Mesocricetus auratus, UniProt P18841)', 'log10(Ki)', 0.97),
  ('COc1cccc2c1[C@@H]1CN(CCCCn3c(=O)[nH]c4c(sc5cccnc54)c3=O)C[C@@H]1CO2 [Example 1, hydrochloride]', 'α-1b adrenoreceptor (Mesocricetus auratus, UniProt P18841)', 'log10(Ki)', 0.06),
  ('COc1cccc2c1[C@H]1CN(CCCCn3c(=O)[nH]c4c(sc5c(OC)ccnc54)c3=O)C[C@@H]1CO2 [Example 8, dihydrochloride]', 'α-1b adrenoreceptor (Mesocricetus auratus, UniProt P18841)', 'log10(Ki)', 0.62),
  ('COc1ccc(O)c2c1[C@@H]1CN(CCCCn3c(=O)[nH]c4c(sc5ncc(-c6ccccc6)nc54)c3=O)C[C@@H]1CO2', 'α-1b adrenoreceptor (Mesocricetus auratus, UniProt P18841)', 'log10(Ki)', 3.21),
  ('COc1ccc2sc3c(=O)n(CCCCN4C[C@@H]5COc6cccc(OC)c6[C@@H]5C4)c(=O)[nH]c3c2n1 [Example 30, hydrochloride]', 'α-1b adrenoreceptor (Mesocricetus auratus, UniProt P18841)', 'log10(Ki)', 0.43),
  ('COc1cccc2c1[C@H]1CCN(CCCCn3c(=O)[nH]c4c(sc5cccnc54)c3=O)C[C@@H]1CO2 [Example 94, dihydrochloride]', 'α-1b adrenoreceptor (Mesocricetus auratus, UniProt P18841)', 'log10(Ki)', 0.29),
  ('COc1cccc2c1[C@H]1CN(CCCCn3c(=O)[nH]c4c(sc5cccnc54)c3=O)C[C@@H]1CO2 [Example 4, hydrochloride]', 'α-1b adrenoreceptor (Mesocricetus auratus, UniProt P18841)', 'log10(Ki)', -0.06),
  ('COc1cccc2c1[C@@H]1CN(CCCCn3c(=O)[nH]c4c(sc5cnccc54)c3=O)C[C@@H]1CO2 [Example 29, dihydrochloride]', 'α-1b adrenoreceptor (Mesocricetus auratus, UniProt P18841)', 'log10(Ki)', 0.57),
  ('COc1cc2[nH]c(=O)n(CCCCN3C[C@@H]4COc5ccccc5[C@@H]4C3)c(=O)c2cc1OC (racemic) [Example 81, hydrochloride]', 'α-1b adrenoreceptor (Mesocricetus auratus, UniProt P18841)', 'log10(Ki)', -0.72),
  ('COc1cnc2sc3c(=O)n(CCCCN4CC[C@H]5c6c(OC)cccc6OC[C@@H]5C4)c(=O)[nH]c3c2n1 [Example 99, hydrochloride]', 'α-1b adrenoreceptor (Mesocricetus auratus, UniProt P18841)', 'log10(Ki)', 1.76),
  ('COc1cccc2c1[C@@H]1CN(CCCCn3c(=O)[nH]c4c(sc5ncc(Cl)nc54)c3=O)C[C@@H]1CO2 [Example 16, hydrochloride]', 'α-1b adrenoreceptor (Mesocricetus auratus, UniProt P18841)', 'log10(Ki)', 0.94),
  ('COc1cccc2c1[C@H]1CCN(CCCn3c(=O)[nH]c4c(sc5cccnc54)c3=O)C[C@@H]1CO2 [Example 93, dihydrochloride]', 'α-1b adrenoreceptor (Mesocricetus auratus, UniProt P18841)', 'log10(Ki)', 0.56),
  ('COc1cnc2sc3c(=O)n(CCCCN4CC5COc6cccc(OC)c6[C@@H]5C4)c(=O)[nH]c3c2n1.Cl (stereo in doubt) [Example 43, hydrochloride]', 'α-1b adrenoreceptor (Mesocricetus auratus, UniProt P18841)', 'log10(Ki)', 0.17),
  ('COc1cccc2c1[C@H]1CN(CCCCn3c(=O)[nH]c4c(sc5c(Cl)ccnc54)c3=O)C[C@@H]1CO2 [Example 5, dihydrochloride]', 'α-1b adrenoreceptor (Mesocricetus auratus, UniProt P18841)', 'log10(Ki)', 0.30),
  ('COc1cccc2c1[C@@H]1CN(CCCCn3c(=O)[nH]c4c(sc5ccnc(Cl)c54)c3=O)C[C@@H]1CO2 [Example 48, hydrochloride]', 'α-1b adrenoreceptor (Mesocricetus auratus, UniProt P18841)', 'log10(Ki)', 0.76),
  ('COc1cccc2c1[C@@H]1CN(CCCCn3c(=O)[nH]c4c(sc5ccncc54)c3=O)C[C@H]1CO2 [Example 41, dihydrochloride]', 'α-1b adrenoreceptor (Mesocricetus auratus, UniProt P18841)', 'log10(Ki)', -0.22),
  ('COc1cccc2c1[C@@H]1CN(CCCCn3c(=O)[nH]c4c(sc5ccccc54)c3=O)C[C@H]1CO2 [Example 21, hydrochloride]', 'α-1b adrenoreceptor (Mesocricetus auratus, UniProt P18841)', 'log10(Ki)', -0.49),
  ('COc1cccc2c1[C@@H]1CCN(CCCn3c(=O)[nH]c4c(sc5cccnc54)c3=O)C[C@H]1CO2 [Example 92, dihydrochloride]', 'α-1b adrenoreceptor (Mesocricetus auratus, UniProt P18841)', 'log10(Ki)', 1.65),
  ('COc1cccc2c1[C@@H]1CCN(CCCCn3c(=O)[nH]c4c(sc5ncccc54)c3=O)C[C@H]1CO2 (racemic) [Example 85, dihydrochloride]', 'α-1b adrenoreceptor (Mesocricetus auratus, UniProt P18841)', 'log10(Ki)', 0.28),
  ('COc1cnc2sc3c(=O)n(CCCCN4C[C@@H]5COc6cccc(OC)c6[C@@H]5C4)c(=O)[nH]c3c2n1 [Example 31, hydrochloride]', 'α-1b adrenoreceptor (Mesocricetus auratus, UniProt P18841)', 'log10(Ki)', 0.68),
  ('COc1cccc2c1[C@@H]1CN(CCCCn3c(=O)[nH]c4c(sc5nc(C)ccc54)c3=O)C[C@@H]1CO2 [Example 35, hydrochloride]', 'α-1b adrenoreceptor (Mesocricetus auratus, UniProt P18841)', 'log10(Ki)', 0.71),
  ('COc1cccc2c1[C@@H]1CN(CCCCn3c(=O)[nH]c4c(sc5c(OC)ccnc54)c3=O)C[C@@H]1CO2 [Example 18, dihydrochloride]', 'α-1b adrenoreceptor (Mesocricetus auratus, UniProt P18841)', 'log10(Ki)', 0.70),
  ('COc1cnc2c(c1)sc1c(=O)n(CCCCN3C[C@H]4COc5cccc(OC)c5[C@@H]4C3)c(=O)[nH]c12 [Example 27, hydrochloride]', 'α-1b adrenoreceptor (Mesocricetus auratus, UniProt P18841)', 'log10(Ki)', -0.01);

----------
target: α-1d adrenoreceptor (Rattus norvegicus, UniProt P23944); test: biochemical; type: binding; conditions: [3H]-prazosin radioligand; cloned receptor in LTK cell membranes; read-out: Radioligand Binding (Ki, nM) 1d (Rat)
Sequence (P23944 whole entry): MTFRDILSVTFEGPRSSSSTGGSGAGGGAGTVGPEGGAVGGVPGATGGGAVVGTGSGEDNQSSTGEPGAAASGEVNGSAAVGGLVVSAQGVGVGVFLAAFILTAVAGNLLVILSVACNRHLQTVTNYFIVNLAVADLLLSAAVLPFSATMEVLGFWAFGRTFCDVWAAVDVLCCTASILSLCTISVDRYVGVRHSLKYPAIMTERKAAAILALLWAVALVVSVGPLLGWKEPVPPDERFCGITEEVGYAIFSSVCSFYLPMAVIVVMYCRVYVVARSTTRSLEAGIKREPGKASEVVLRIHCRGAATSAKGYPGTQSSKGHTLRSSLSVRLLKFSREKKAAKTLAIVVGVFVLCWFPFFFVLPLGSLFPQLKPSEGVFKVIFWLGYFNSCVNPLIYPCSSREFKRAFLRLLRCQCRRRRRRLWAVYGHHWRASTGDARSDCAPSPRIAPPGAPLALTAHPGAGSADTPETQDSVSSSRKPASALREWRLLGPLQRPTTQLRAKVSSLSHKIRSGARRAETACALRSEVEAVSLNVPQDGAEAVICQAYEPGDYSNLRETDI
Where a name gives a salt, the structure may show the parent alone.
Some molecules, each annotated with its measured log10 of Ki.
readout: log10 of Ki (log10 of the value in nM)

INSERT INTO measurements (molecule, systemname, observed) VALUES
  ('COc1cccc2c1[C@@H]1CN(CCCCn3c(=O)[nH]c4c(sc5cccnc54)c3=O)C[C@H]1CO2 [Example 3, hydrochloride]', 'α-1d adrenoreceptor (Rattus norvegicus, UniProt P23944)', -1.39),
  ('COc1cccc2c1[C@@H]1CN(CCCCCn3c(=O)[nH]c4c(sc5ccccc54)c3=O)C[C@@H]1CO2 [Example 24, hydrochloride]', 'α-1d adrenoreceptor (Rattus norvegicus, UniProt P23944)', 0.65),
  ('COc1cccc2c1[C@@H]1CN(CCCCn3c(=O)[nH]c4c(sc5ccc(-c6cccnc6)nc54)c3=O)C[C@H]1CO2 [Example 58, trihydrochloride]', 'α-1d adrenoreceptor (Rattus norvegicus, UniProt P23944)', -1.41),
  ('COc1cccc2c1[C@@H]1CN(CCCCn3c(=O)[nH]c4c(sc5cc(Cl)cnc54)c3=O)C[C@@H]1CO2 [Example 38, hydrochloride]', 'α-1d adrenoreceptor (Rattus norvegicus, UniProt P23944)', -0.05),
  ('COc1cccc2c1[C@@H]1CCN(CCCCn3c(=O)[nH]c4c(sc5ncc(-c6ccccc6)nc54)c3=O)C[C@H]1CO2 [Example 100, hydrochloride]', 'α-1d adrenoreceptor (Rattus norvegicus, UniProt P23944)', 0.88),
  ('COc1cccc2c1[C@@H]1CN(CCCCn3c(=O)[nH]c4c(sc5ncc(-c6cccnc6)nc54)c3=O)C[C@H]1CO2 [Example 60, dihydrochloride]', 'α-1d adrenoreceptor (Rattus norvegicus, UniProt P23944)', 0.26);

Reference for the values: patent EP0942911B1
